tested_system: T1, MAGE-A1 peptide on HLA-A*02:01 (human)
T1 peptide: KVLEYVIKV
assay_remarks: KD-SPR estimated from Dextramer MFI by the formula calibrated on gp100 TCRs, not measured; unit inferred; full-length, on cells
Reported Kd values for the following binders.
value_type: Kd

>>> measured_result("A1A2-M01-623 (TCR, V domains shown) Valpha: GEDVEQSLFLSVREGDSSVINCTYTDSSQTYLYWYKQEPGAGLQLLTYIFIFQAMKQDQRLTVLLNKKDKHLSLRIADTQTGDSAIYFCAGSGGGTDKLIFGTGTRLQVFP Vbeta: GAVVSQHPSWVICKSGTSVKIECRSLDFEATTMFWYRQFPKQSLMLMATTDYGSKATYEQGVEKDKFLINHASLTLSTLTVTSAHPEDSSFYICSAREPGQGPWEQYFGPGTRLTVT")
"~337 pM"
>>> measured_result("A1A2-M01-624 (TCR, V domains shown) Valpha: GEDVEQSLFLSVREGDSSVINCTYQYGMSTYLYWYKQEPGAGLQLLTYIFSFMDMKQDQRLTVLLNKKDKHLSLRIADTQTGDSAIYFCAGSGGGTDKLIFGTGTRLQVFP Vbeta: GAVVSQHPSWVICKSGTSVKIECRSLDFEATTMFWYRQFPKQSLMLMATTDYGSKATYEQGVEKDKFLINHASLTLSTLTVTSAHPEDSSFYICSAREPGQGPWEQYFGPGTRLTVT")
"~65.1 pM"
>>> measured_result("A1A2-M01-621 (TCR, V domains shown) Valpha: GEDVEQSLFLSVREGDSSVINCTYTDSEFTYLYWYKQEPGAGLQLLTYIFAFESMKQDQRLTVLLNKKDKHLSLRIADTQTGDSAIYFCAGSGGGTDKLIFGTGTRLQVFP Vbeta: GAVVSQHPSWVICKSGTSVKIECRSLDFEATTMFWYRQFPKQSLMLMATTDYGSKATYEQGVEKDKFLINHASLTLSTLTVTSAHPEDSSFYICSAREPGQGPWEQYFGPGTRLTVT")
"~74.7 pM"
>>> measured_result("A1A2-M01-612 (TCR, V domains shown) Valpha: GEDVEQSLFLSVREGDSSVINCTYVDPYSTYLYWYKQEPGAGLQLLTYIFSFMDMKQDQRLTVLLNKKDKHLSLRIADTQTGDSAIYFCAGSGGGTDKLIFGTGTRLQVFP Vbeta: GAVVSQHPSWVICKSGTSVKIECRSLDFEATTMFWYRQFPKQSLMLMATSNEGSKATYEQGVEKDKFLINHASLTLSTLTVTSAHPEDSSFYICSAREPWDPWYEQYFGPGTRLTVT")
"~2.94 pM"
>>> measured_result("A1A2-M01-625 (TCR, V domains shown) Valpha: GEDVEQSLFLSVREGDSSVINCTYTDSSMTYLYWYKQEPGAGLQLLTYIFAFESMKQDQRLTVLLNKKDKHLSLRIADTQTGDSAIYFCAGSGGGTDKLIFGTGTRLQVFP Vbeta: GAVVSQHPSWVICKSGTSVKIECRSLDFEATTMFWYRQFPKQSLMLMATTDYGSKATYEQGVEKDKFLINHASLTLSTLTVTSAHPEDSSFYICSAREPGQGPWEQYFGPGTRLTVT")
"~22.2 pM"
>>> measured_result("A1A2-M01-613 (TCR, V domains shown) Valpha: GEDVEQSLFLSVREGDSSVINCTYTDSSLTYLYWYKQEPGAGLQLLTYIFSFMDMKQDQRLTVLLNKKDKHLSLRIADTQTGDSAIYFCAGSGGGTDKLIFGTGTRLQVFP Vbeta: GAVVSQHPSWVICKSGTSVKIECRSLDFQATTMFWYRQFPKQSLMLMATTDYGSKATYEQGVEKDKFLINHASLTLSTLTVTSAHPEDSSFYICSAREPGQGPWEQYFGPGTRLTVT")
"~33.8 pM"
>>> measured_result("A1A2-M01-617 (TCR, V domains shown) Valpha: GEDVEQSLFLSVREGDSSVINCTYPDMFSTYLYWYKQEPGAGLQLLTYIFAFMQMKQDQRLTVLLNKKDKHLSLRIADTQTGDSAIYFCAGSGGGTDKLIFGTGTRLQVFP Vbeta: GAVVSQHPSWVICKSGTSVKIECRSLDFEATTMFWYRQFPKQSLMLMATSNEGDQATYEQGVEKDKFLINHASLTLSTLTVTSAHPEDSSFYICSAREPGQGPWEQYFGPGTRLTVT")
"~43.2 pM"
>>> measured_result("A1A2-M01-620 (TCR, V domains shown) Valpha: GEDVEQSLFLSVREGDSSVINCTYTDSSQTYLYWYKQEPGAGLQLLTYIFSNMDMKQDQRLTVLLNKKDKHLSLRIADTQTGDSAIYFCAGSGGGTDKLIFGTGTRLQVFP Vbeta: GAVVSQHPSWVICKSGTSVKIECRSLDFEATTMFWYRQFPKQSLMLMATTDYGSKATYEQGVEKDKFLINHASLTLSTLTVTSAHPEDSSFYICSAREPGQAWSDQYFGPGTRLTVT")
"~524 pM"
>>> measured_result("A1A2-M01-614 (TCR, V domains shown) Valpha: GEDVEQSLFLSVREGDSSVINCTYSDMLSTYLYWYKQEPGAGLQLLTYIFIFQAMKQDQRLTVLLNKKDKHLSLRIADTQTGDSAIYFCAGSGGGTDKLIFGTGTRLQVFP Vbeta: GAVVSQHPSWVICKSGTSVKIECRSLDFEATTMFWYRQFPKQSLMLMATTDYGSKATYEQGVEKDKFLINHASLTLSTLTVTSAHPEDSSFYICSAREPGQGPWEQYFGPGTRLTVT")
"~208 pM"
>>> measured_result("A1A2-M01-622 (TCR, V domains shown) Valpha: GEDVEQSLFLSVREGDSSVINCTYTDSSSTYLYWYKQEPGAGLQLLTYIFAFESMKQDQRLTVLLNKKDKHLSLRIADTQTGDSAIYFCAGSGGGTDKLIFGTGTRLQVFP Vbeta: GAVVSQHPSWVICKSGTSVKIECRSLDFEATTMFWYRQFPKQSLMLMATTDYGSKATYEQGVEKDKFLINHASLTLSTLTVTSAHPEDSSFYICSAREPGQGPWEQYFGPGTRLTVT")
"~28 pM"
>>> measured_result("A1A2-M01-616 (TCR, V domains shown) Valpha: GEDVEQSLFLSVREGDSSVINCTYTDSSQTYLYWYKQEPGAGLQLLTYIFAFMQMKQDQRLTVLLNKKDKHLSLRIADTQTGDSAIYFCAGSGGGTDKLIFGTGTRLQVFP Vbeta: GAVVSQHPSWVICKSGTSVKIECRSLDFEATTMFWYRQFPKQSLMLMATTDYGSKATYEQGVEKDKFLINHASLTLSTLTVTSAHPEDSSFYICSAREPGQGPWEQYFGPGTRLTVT")
"~18.6 pM"
